Test system: DU-145
Assay protocol: Cytotoxicity against human DU145 cells assessed as inhibition of cell viability at 10 uM after 3 days by trypan blue dye exclusion assay
Assay type: functional
Details: DU-145, 72 h
Readout type: inhibition at 10 µM (%)
Please state the figure in %; there is no need to write the unit.

{"Molecule": "CCC(CC)n1ccnc1/C=C/C(=O)/C=C/c1nccn1C(CC)CC", "Assayed system": "DU-145", "Result unit": "%", "inhibition at 10 µM": 87.8}
{"Molecule": "Cn1cc(/C=C/C(=O)/C=C/c2cnn(C)c2)cn1", "Assayed system": "DU-145", "Result unit": "%", "inhibition at 10 µM": 0.01}
{"Molecule": "O=C(/C=C/c1ccncc1)/C=C/c1ccncc1", "Assayed system": "DU-145", "Result unit": "%", "inhibition at 10 µM": 89.7}
{"Molecule": "Cc1csc(/C=C/C(=O)/C=C/c2nc(C)cs2)n1", "Assayed system": "DU-145", "Result unit": "%", "inhibition at 10 µM": 85.1}

Any idea what its inhibition at 10 µM is? The molecule is CCCC(C)n1ccnc1/C=C/C(=O)/C=C/c1nccn1C(C)CCC (configuration not stated)
89.1

// inhibition at 10 µM lookup, key: `O=C(/C=C/c1ccncc1F)/C=C/c1ccncc1F`
90.1

Entry `CCn1ccnc1/C=C/C(=O)/C=C/c1nccn1CC` has what inhibition at 10 µM?
85

Suppose we examine the molecule `CCCCCn1ccnc1/C=C/C(=O)/C=C/c1nccn1CCCCC` ; what inhibition at 10 µM value has been reported?
83.7

// query inhibition at 10 µM value for entry `Cc1nc(/C=C/C(=O)/C=C/c2nc(C)c(-c3ccncc3)s2)sc1-c1ccncc1`
35.2

GET /values?readout=inhibition at 10 µM&item= `CC(C)CCn1ccnc1/C=C/C(=O)/C=C/c1nccn1CCC(C)C`
94.3

Fill in the blank: the reported inhibition at 10 µM of `O=C(/C=C/c1cccc(Br)n1)/C=C/c1cccc(Br)n1` is ____.
83

Tell me the measured inhibition at 10 µM of CCC(C)n1c(/C=C/C(=O)/C=C/c2nc3ccccc3n2C(C)CC)nc2ccccc21 (configuration not stated) , please.
87.1

Quick check: inhibition at 10 µM of `CCCCCCn1c(/C=C/C(=O)/C=C/c2nc3ccccc3n2CCCCCC)nc2ccccc21` ?
91.1

Look up inhibition at 10 µM for this molecule: `CCCCn1ccnc1/C=C/C(=O)/C=C/c1nccn1CCCC`
85

Query: inhibition at 10 µM; subject: `CCn1c(/C=C/C(=O)/C=C/c2nc3ccccc3n2CC)nc2ccccc21`
82

Dear colleague, I am looking for the recorded inhibition at 10 µM of the following molecule: `CCCCCCn1ccnc1/C=C/C(=O)/C=C/c1nccn1CCCCCC`
93.4

GET /values?readout=inhibition at 10 µM&item= `CCCn1ccnc1/C=C/C(=O)/C=C/c1nccn1CCC`
86.9

Hello, the source for this data is ChEMBL document CHEMBL3576841, in case you need it.
